- ASSAY_PROTOCOL: Biodistribution in Daudi xenograft bearing CB-17 SCID mice
- Format: in vivo
- ASSAY_CONTEXT: mouse, iv, total radioactivity, Lung, 1 h p.i., CB-17 SCID female mice, read-out: % iD/g Lung
Positions of bridges follow the written chain, without caps; N, C: chain ends. Non-standard residues stand in square brackets, D forms with d. Residues, ends and D or L forms follow the SMILES beside them. Chains are numbered I, II in the order given. *: point of attachment. 2Nal = N[C@@H](Cc1ccc2ccccc2c1)C(=O)O; dNMeOrn = CN[C@H](CCCN)C(=O)O; Mercaptoacetyl = O=C(CS)*; 4Abz = Nc1ccc(C(=O)O)cc1
ENDPOINT_NAME: tissue uptake at 1 h (%ID/g)
Entry rule: numbers only, all in %ID/g.

tissue uptake at 1 h in this record for C[C@@H](NC(=O)[C@@H](CCCNC(=N)N)NC(=O)[C@@H](CO)NC(=O)[C@@H](CO)NC(=O)[C@@H](CO)NC(=O)CS)C(=O)Nc1ccc(C(=O)NCCC[C@@H]2C(=O)N[C@@H](CCCNC(=N)N)C(=O)N[C@@H](Cc3ccc4ccccc4c3)C(=O)NCC(=O)N[C@H](Cc3ccc(O)cc3)C(=O)N2C)cc1 [Tc-CXCR4-1] (I: Mercaptoacetyl-[dS][dS][dS][dR][dA][4Abz] / II: cyclo([dY][dNMeOrn]R[2Nal]G); amide I:C-II:2) : 1.79

###

- ASSAY_PROTOCOL: Biodistribution in Jurkat tumor-bearing CB-17 SCID mice
- Format: in vivo
- ASSAY_CONTEXT: female, CB-17 SCID, mouse, in vivo, iv, total radioactivity, % iD/g Stomach
Non-standard residues stand in square brackets, D forms with d. Residues, ends and D or L forms follow the SMILES beside them. Groups on a side chain read outwards from the residue. *: point of attachment. DOTA = O=C(O)CN1CCN(CC(=O)O)CCN(CC(=O)*)CCN(CC(=O)O)CC1; dTyr(3-I) = N[C@H](Cc1ccc(O)c(I)c1)C(=O)O; 2Nal = N[C@@H](Cc1ccc2ccccc2c1)C(=O)O; dNMeOrn = CN[C@H](CCCN)C(=O)O; 4Amb = NCc1ccc(C(=O)O)cc1; 4Abz = Nc1ccc(C(=O)O)cc1; dDap = NC[C@@H](N)C(=O)O
ENDPOINT_NAME: tissue uptake at 1 h (%ID/g)
Entry rule: numbers only, all in %ID/g.

COMPOUND	tissue uptake at 1 h / %ID/g
C[C@@H](NC(=O)[C@@H](CCCNC(=N)N)NC(=O)[C@@H](CN)NC(=O)CCCCCNC(=O)[C@@H](CNC(=O)CN1CCN(CC(=O)O)CCN(CC(=O)O)CCN(CC(=O)O)CC1)NC(=O)CCCCC[N+]1=C(/C=C/C=C/C=C2/N(C)c3ccc(S(=O)(=O)O)cc3C2(C)C)C(C)(C)c2cc(S(=O)(=O)[O-])ccc21)C(=O)Nc1ccc(C(=O)NCCC[C@@H]2C(=O)N[C@@H](CCCNC(=N)N)C(=O)N[C@@H](Cc3ccc4ccccc4c3)C(=O)NCC(=O)N[C@H](Cc3ccc(O)cc3)C(=O)N2C)cc1 [[^natLu]CXCR4-OI-3, metal not drawn]	1.43
C[C@@H](NC(=O)[C@@H](CCCNC(=N)N)NC(=O)[C@@H](CN)NC(=O)CN1CCN(CC(=O)O)CCN(CC(=O)O)CCN(CC(=O)O)CC1)C(=O)NCc1ccc(C(=O)NCCC[C@@H]2C(=O)N[C@@H](CCCNC(=N)N)C(=O)N[C@@H](Cc3ccc4ccccc4c3)C(=O)NCC(=O)N[C@H](Cc3ccc(O)cc3)C(=O)N2C)cc1 [CXCR4-DOTA-1 [Lu]] (cyclo([dY][dNMeOrn]([4Amb-dA-dR-dDap-DOTA])R[2Nal]G))	1.06

Turning now to a further compound:
tissue uptake at 1 h in this record for C[C@@H](NC(=O)[C@@H](CCCNC(=N)N)NC(=O)[C@@H](CN)NC(=O)CN1CCN(CC(=O)O)CCN(CC(=O)O)CCN(CC(=O)O)CC1)C(=O)Nc1ccc(C(=O)NCCC[C@@H]2C(=O)N[C@@H](CCCNC(=N)N)C(=O)N[C@@H](Cc3ccc4ccccc4c3)C(=O)NCC(=O)N[C@H](Cc3ccc(O)c(I)c3)C(=O)N2C)cc1 [CXCR4-DOTA-4 [Lu]] (cyclo([dTyr(3-I)][dNMeOrn]([4Abz-dA-dR-dDap-DOTA])R[2Nal]G)) : 1.35
